In this section, each of the compounds is paired with its reported IC50.
- TESTED_TARGET: Cholinesterase (Equus caballus, UniProt P81908)
- Sequence (P81908 whole entry): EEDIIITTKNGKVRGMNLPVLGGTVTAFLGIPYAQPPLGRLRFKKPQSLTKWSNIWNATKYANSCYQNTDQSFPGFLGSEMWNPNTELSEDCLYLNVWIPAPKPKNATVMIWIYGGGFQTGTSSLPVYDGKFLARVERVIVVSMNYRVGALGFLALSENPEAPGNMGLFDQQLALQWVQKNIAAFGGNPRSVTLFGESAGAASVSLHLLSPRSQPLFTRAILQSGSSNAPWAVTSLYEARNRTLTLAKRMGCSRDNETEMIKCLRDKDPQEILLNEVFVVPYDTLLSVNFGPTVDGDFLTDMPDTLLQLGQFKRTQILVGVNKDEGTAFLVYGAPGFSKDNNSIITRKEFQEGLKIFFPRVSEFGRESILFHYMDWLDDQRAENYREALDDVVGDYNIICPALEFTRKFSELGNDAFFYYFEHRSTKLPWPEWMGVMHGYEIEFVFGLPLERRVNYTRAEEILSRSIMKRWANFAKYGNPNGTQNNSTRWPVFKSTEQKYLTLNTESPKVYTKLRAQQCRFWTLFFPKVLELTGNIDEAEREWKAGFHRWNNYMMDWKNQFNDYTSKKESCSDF
- ASSAY_PROCEDURE: Inhibition of equine serum BuChE using BTC as substrate after 15 mins by Ellman's method

{"COMPOUND": "CCN(C)C(=O)Oc1ccc(/C=C/C(=O)N2CCN(Cc3ccccc3)CC2)cc1", "BOUND_SIGN": "=", "IC50 / µM": 20.3}
{"COMPOUND": "COc1cc(/C=C/C(=O)N2CCC(Cc3ccccc3)CC2)ccc1OC(=O)N(c1ccccc1)c1ccccc1", "BOUND_SIGN": ">", "IC50 / µM": 100}
{"COMPOUND": "COc1cc(/C=C/C(=O)O)ccc1O [FERULATE]", "BOUND_SIGN": ">", "IC50 / µM": 100}
{"COMPOUND": "CCN(CC)C(=O)Oc1ccc(/C=C/C(=O)N2CCN(Cc3ccccc3)CC2)cc1OC", "BOUND_SIGN": "=", "IC50 / µM": 8.7}
{"COMPOUND": "CCN(CC)C(=O)Oc1ccc(/C=C/C(=O)N2CCC(Cc3ccccc3)CC2)cc1OC", "BOUND_SIGN": "=", "IC50 / µM": 2.8}
{"COMPOUND": "COc1cc(/C=C/C(=O)N2CCc3ccccc3C2)ccc1OC(=O)N(c1ccccc1)c1ccccc1", "BOUND_SIGN": "=", "IC50 / µM": 23.9}
{"COMPOUND": "COc1cc(/C=C/C(=O)N2CCCCC2)ccc1OC(=O)N(c1ccccc1)c1ccccc1", "BOUND_SIGN": "=", "IC50 / µM": 98.5}
{"COMPOUND": "COc1cc(/C=C/C(=O)N2CCc3ccccc3C2)ccc1OC(=O)N(C)C", "BOUND_SIGN": "=", "IC50 / µM": 3.7}
{"COMPOUND": "COc1cc(/C=C/C(=O)N2CCC(Cc3ccccc3)CC2)ccc1OC(=O)N(C)C", "BOUND_SIGN": "=", "IC50 / µM": 1.3}

* * *

- TESTED_TARGET: Amine oxidase [flavin-containing] B (Homo sapiens)
- Sequence (P27338 whole entry): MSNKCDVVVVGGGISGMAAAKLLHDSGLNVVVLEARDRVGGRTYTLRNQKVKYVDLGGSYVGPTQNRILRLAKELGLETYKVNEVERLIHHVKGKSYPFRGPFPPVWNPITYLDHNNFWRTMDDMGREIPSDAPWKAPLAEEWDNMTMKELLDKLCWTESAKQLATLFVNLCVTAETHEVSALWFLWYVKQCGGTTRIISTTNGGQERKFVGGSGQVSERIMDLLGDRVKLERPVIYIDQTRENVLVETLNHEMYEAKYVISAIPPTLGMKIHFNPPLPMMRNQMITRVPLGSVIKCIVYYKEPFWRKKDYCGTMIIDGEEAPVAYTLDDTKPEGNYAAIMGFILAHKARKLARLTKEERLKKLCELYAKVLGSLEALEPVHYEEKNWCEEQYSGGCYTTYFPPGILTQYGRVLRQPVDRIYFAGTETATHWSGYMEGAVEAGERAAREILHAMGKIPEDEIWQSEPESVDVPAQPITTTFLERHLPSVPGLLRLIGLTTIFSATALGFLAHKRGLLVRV
- ASSAY_PROCEDURE: Inhibition of recombinant human MAO-B
Reported values of IC50 for individual entries

{"SAMPLE_SMILES": "COc1cc(/C=C/C(=O)N2CCc3ccccc3C2)ccc1OC(=O)N(C)OC", "IC50 (µM)": 6.8}
{"SAMPLE_SMILES": "COc1cc(/C=C/C(=O)N2CCCCC2)ccc1OC(=O)N(C)C", "IC50 (µM)": 32.5}
{"SAMPLE_SMILES": "CCN(CC)C(=O)Oc1ccc(/C=C/C(=O)N2CCc3ccccc3C2)cc1OC", "IC50 (µM)": 6.6}
{"SAMPLE_SMILES": "CCN(CC)C(=O)Oc1ccc(/C=C/C(=O)N2CCN(Cc3ccccc3)CC2)cc1OC", "IC50 (µM)": 23.2}
{"SAMPLE_SMILES": "CCN(C)C(=O)Oc1ccc(/C=C/C(=O)N2CCc3ccccc3C2)cc1", "IC50 (µM)": 8.3}
{"SAMPLE_SMILES": "CCN(Cc1ccccc1)C(=O)/C=C/c1ccc(OC(=O)N(c2ccccc2)c2ccccc2)c(OC)c1", "IC50 (µM)": 15.9}

* * *

- Species: Homo sapiens
- ASSAY_PROCEDURE: Selectivity index, ratio of IC50 for recombinant human MAO-A to IC50 for recombinant human MAO-B
Response field label: string, one of condition met (Ratio IC50 strictly below 2) or condition not met.

{"SAMPLE_SMILES": "COc1cc(/C=C/C(=O)N2CCc3ccccc3C2)ccc1OC(=O)N(C)C", "ANSWER_LABEL": "condition not met"}
{"SAMPLE_SMILES": "COc1cc(/C=C/C(=O)N2CCN(Cc3ccccc3)CC2)ccc1OC(=O)N(C)C", "ANSWER_LABEL": "condition not met"}
{"SAMPLE_SMILES": "COc1cc(/C=C/C(=O)N2CCCCC2)ccc1OC(=O)N(c1ccccc1)c1ccccc1", "ANSWER_LABEL": "condition not met"}
{"SAMPLE_SMILES": "COc1cc(/C=C/C(=O)N2CCC(Cc3ccccc3)CC2)ccc1OC(=O)N(C)C", "ANSWER_LABEL": "condition met"}
{"SAMPLE_SMILES": "CCN(C)C(=O)Oc1ccc(/C=C/C(=O)N(CC)Cc2ccccc2)cc1OC", "ANSWER_LABEL": "condition met"}
{"SAMPLE_SMILES": "COc1cc(/C=C/C(=O)N2CCc3ccccc3C2)ccc1OC(=O)N(c1ccccc1)c1ccccc1", "ANSWER_LABEL": "condition met"}
{"SAMPLE_SMILES": "CCN(C)C(=O)Oc1ccc(/C=C/C(=O)N2CCN(Cc3ccccc3)CC2)cc1", "ANSWER_LABEL": "condition met"}
{"SAMPLE_SMILES": "CCN(C)C(=O)Oc1ccc(/C=C/C(=O)N2CCc3ccccc3C2)cc1", "ANSWER_LABEL": "condition not met"}
{"SAMPLE_SMILES": "COc1cc(/C=C/C(=O)N2CCC(Cc3ccccc3)CC2)ccc1OC(=O)N(c1ccccc1)c1ccccc1", "ANSWER_LABEL": "condition not met"}
{"SAMPLE_SMILES": "CCN(CC)C(=O)/C=C/c1ccc(OC(=O)N(C)C)c(OC)c1", "ANSWER_LABEL": "condition met"}
{"SAMPLE_SMILES": "CCN(CC)C(=O)Oc1ccc(/C=C/C(=O)N2CCN(Cc3ccccc3)CC2)cc1OC", "ANSWER_LABEL": "condition met"}

* * *

- ASSAY_PROCEDURE: Selectivity index, ratio of IC50 for Electrophorus electricus AChE to IC50 for equine serum BuChE
I would appreciate it if you labelled entries condition met when Ratio IC50 is 5 or higher, otherwise condition not met.

{"SAMPLE_SMILES": "CCN(CC)C(=O)/C=C/c1ccc(OC(=O)N(C)C)c(OC)c1", "ANSWER_LABEL": "condition not met"}
{"SAMPLE_SMILES": "COc1cc(/C=C/C(=O)N2CCc3ccccc3C2)ccc1OC(=O)N(C)C", "ANSWER_LABEL": "condition met"}
{"SAMPLE_SMILES": "CCN(C)C(=O)Oc1ccc(/C=C/C(=O)N2CCCCC2)cc1OC", "ANSWER_LABEL": "condition not met"}
{"SAMPLE_SMILES": "COc1cc(/C=C/C(=O)N2CCc3ccccc3C2)ccc1OC(=O)N(C)OC", "ANSWER_LABEL": "condition not met"}
{"SAMPLE_SMILES": "CCN(C)C(=O)Oc1ccc(/C=C/C(=O)N2CCC(Cc3ccccc3)CC2)cc1", "ANSWER_LABEL": "condition not met"}
{"SAMPLE_SMILES": "COc1cc(/C=C/C(=O)N2CCN(Cc3ccccc3)CC2)ccc1OC(=O)N(C)C", "ANSWER_LABEL": "condition not met"}
{"SAMPLE_SMILES": "COc1cc(/C=C/C(=O)N2CCC(Cc3ccccc3)CC2)ccc1OC(=O)N(C)C", "ANSWER_LABEL": "condition met"}
{"SAMPLE_SMILES": "CCN(C)C(=O)Oc1ccc(/C=C/C(=O)N2CCc3ccccc3C2)cc1", "ANSWER_LABEL": "condition not met"}
{"SAMPLE_SMILES": "CCN(CC)C(=O)Oc1ccc(/C=C/C(=O)N2CCC(Cc3ccccc3)CC2)cc1OC", "ANSWER_LABEL": "condition met"}
{"SAMPLE_SMILES": "CCN(CC)C(=O)Oc1ccc(/C=C/C(=O)N2CCN(Cc3ccccc3)CC2)cc1OC", "ANSWER_LABEL": "condition not met"}
{"SAMPLE_SMILES": "CCN(C)C(=O)Oc1ccc(/C=C/C(=O)N2CCC(Cc3ccccc3)CC2)cc1OC", "ANSWER_LABEL": "condition not met"}
{"SAMPLE_SMILES": "CCN(C)C(=O)Oc1ccc(/C=C/C(=O)N(CC)Cc2ccccc2)cc1OC", "ANSWER_LABEL": "condition met"}
{"SAMPLE_SMILES": "CCN(CC)C(=O)Oc1ccc(/C=C/C(=O)N2CCc3ccccc3C2)cc1OC", "ANSWER_LABEL": "condition met"}
{"SAMPLE_SMILES": "CCN(C)C(=O)Oc1ccc(/C=C/C(=O)N2CCc3ccccc3C2)cc1OC", "ANSWER_LABEL": "condition met"}
{"SAMPLE_SMILES": "CCN(C)C(=O)Oc1ccc(/C=C/C(=O)N2CCN(Cc3ccccc3)CC2)cc1", "ANSWER_LABEL": "condition not met"}
{"SAMPLE_SMILES": "CCN(Cc1ccccc1)C(=O)/C=C/c1ccc(OC(=O)N(c2ccccc2)c2ccccc2)c(OC)c1", "ANSWER_LABEL": "condition not met"}
{"SAMPLE_SMILES": "COc1cc(/C=C/C(=O)N2CCCCC2)ccc1OC(=O)N(C)C", "ANSWER_LABEL": "condition not met"}
